Organism: Rattus norvegicus
Measurement description: Open TG-GATES - Regimen: Single
Assay type: toxicity, organism-based, Sprague-Dawley
Design: regimen Single, gender Male, age 6 weeks
Condition label: in vivo, po, 0 mg/kg, 24 h, tissue Kidney, route gavage, dose level Control
Below, each entry is listed alongside its reported KIDNEY_TOTAL.
The figure you give is taken to be in g; do not add the unit.

Compound	Recorded number
CC/C(=C(\c1ccccc1)c1ccc(OCCN(C)C)cc1)c1ccccc1	1.8
COc1ccc2[nH]c([S+]([O-])Cc3ncc(C)c(OC)c3C)nc2c1 (stereo not drawn)	2
CC1=C(/C=C/C(C)=C/C=C/C(C)=C/CO)C(C)(C)CCC1	1.9

KIDNEY_TOTAL for CN(C)CCCN1c2ccccc2CCc2ccc(Cl)cc21 is 2.1

Sample NNC(=O)c1ccncc1 ; KIDNEY_TOTAL observed: 2

KIDNEY_TOTAL measured on CC(C)OC(=O)C(C)(C)Oc1ccc(C(=O)c2ccc(Cl)cc2)cc1 [FENOFIBRATE] = 1.7

For this compound ( CN1C(=O)CN=C(c2ccccc2)c2cc(Cl)ccc21 ), measured KIDNEY_TOTAL is 2.1

Please fill in: KIDNEY_TOTAL reported for CCOc1ccc(NC(=O)CC(C)O)cc1 (stereo not drawn) = 2

KIDNEY_TOTAL in this record for O=C(CCCN1CCC(O)(c2ccc(Cl)cc2)CC1)c1ccc(F)cc1 : 1.9

The compound identified as CN(C)CCN(Cc1cccs1)c1ccccn1 registered its KIDNEY_TOTAL at 1.8

Measured KIDNEY_TOTAL of COC1=CC(=O)C[C@@H](C)[C@]12Oc1c(Cl)c(OC)cc(OC)c1C2=O : 2.1

These entries and their values trace back to ChEMBL document CHEMBL3885861.
